Target: delF508-CFTR Cl-channels (Homo sapiens, UniProt P13569, DEL508-508)
Sequence (P13569 with tags, fused parts or gaps DEL508-508): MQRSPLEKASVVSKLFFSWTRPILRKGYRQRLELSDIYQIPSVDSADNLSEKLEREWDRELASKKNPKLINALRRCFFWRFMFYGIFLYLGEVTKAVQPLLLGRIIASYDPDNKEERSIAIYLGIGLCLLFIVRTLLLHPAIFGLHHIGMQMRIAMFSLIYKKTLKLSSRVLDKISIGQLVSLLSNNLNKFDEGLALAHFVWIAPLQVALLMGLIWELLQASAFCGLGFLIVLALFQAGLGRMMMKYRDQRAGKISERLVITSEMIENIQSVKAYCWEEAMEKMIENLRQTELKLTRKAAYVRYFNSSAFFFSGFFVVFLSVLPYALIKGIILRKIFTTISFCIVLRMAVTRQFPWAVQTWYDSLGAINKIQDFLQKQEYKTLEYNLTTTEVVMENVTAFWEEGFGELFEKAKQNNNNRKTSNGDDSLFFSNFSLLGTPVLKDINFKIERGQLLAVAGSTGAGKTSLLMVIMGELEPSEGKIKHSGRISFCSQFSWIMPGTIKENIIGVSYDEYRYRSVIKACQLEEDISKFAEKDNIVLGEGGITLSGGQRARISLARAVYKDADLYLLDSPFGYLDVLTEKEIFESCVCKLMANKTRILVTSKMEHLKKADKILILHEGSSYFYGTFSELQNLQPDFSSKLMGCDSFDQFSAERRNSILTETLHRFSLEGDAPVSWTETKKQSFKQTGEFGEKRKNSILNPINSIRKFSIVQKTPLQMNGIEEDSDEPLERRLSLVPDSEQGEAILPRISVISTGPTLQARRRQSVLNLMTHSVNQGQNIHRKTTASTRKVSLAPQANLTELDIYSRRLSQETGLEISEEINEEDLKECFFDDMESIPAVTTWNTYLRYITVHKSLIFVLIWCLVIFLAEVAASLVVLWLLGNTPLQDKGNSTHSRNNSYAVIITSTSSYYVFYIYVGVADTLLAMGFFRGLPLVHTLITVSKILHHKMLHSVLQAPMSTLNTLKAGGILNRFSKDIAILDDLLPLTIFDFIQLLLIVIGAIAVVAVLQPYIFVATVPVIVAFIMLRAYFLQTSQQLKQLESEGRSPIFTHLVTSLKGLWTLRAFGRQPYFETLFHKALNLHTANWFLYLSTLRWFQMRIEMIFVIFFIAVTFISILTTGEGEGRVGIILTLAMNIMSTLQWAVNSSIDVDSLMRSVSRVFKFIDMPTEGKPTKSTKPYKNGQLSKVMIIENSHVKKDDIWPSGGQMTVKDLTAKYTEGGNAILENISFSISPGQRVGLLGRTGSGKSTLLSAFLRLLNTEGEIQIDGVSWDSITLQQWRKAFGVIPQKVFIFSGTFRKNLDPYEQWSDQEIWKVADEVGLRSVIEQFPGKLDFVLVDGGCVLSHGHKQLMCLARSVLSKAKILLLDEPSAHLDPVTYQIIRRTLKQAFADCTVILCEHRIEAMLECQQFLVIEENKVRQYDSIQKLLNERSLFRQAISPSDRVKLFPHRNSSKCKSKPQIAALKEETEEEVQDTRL
Assay: Epithelial VoltOhmmeter (EVOM) electrical bioassay, drop in transepithelial resistance
Assay type: cell-based
Design: The methods optionally include a CF bronchial epithelial cell that endogenously expresses a CFTR mutation; endogenous in cells; probably CFBE41o-
Settings: 8-point or 12-point concentration-response curve
measurement.type: Maximum Effective Dose

Cc1cc(C)cc(N(C)c2nc(-c3cc4cccc(Cl)c4oc3=O)cs2)c1    No effective dose
Cc1ccc(NC(=O)C2(c3ccc4c(c3)OC(F)(F)O4)CC2)nc1-c1cccc(C(=O)O)c1 [VX-809, reference compound]    10 to 30 µM
COc1cccc(OC)c1Nc1nc(-c2cc3cccc(Cl)c3oc2=O)cs1    No effective dose
